These data points were gathered from ChEMBL document CHEMBL3879915.

biological target: Protein arginine N-methyltransferase 5 (Homo sapiens, UniProt O14744); test: Inhibition of PRMT5 in human Z138 cells assessed as decrease in di-methyl arginine levels after 96 hrs by Western blot method
Sequence (O14744 whole entry): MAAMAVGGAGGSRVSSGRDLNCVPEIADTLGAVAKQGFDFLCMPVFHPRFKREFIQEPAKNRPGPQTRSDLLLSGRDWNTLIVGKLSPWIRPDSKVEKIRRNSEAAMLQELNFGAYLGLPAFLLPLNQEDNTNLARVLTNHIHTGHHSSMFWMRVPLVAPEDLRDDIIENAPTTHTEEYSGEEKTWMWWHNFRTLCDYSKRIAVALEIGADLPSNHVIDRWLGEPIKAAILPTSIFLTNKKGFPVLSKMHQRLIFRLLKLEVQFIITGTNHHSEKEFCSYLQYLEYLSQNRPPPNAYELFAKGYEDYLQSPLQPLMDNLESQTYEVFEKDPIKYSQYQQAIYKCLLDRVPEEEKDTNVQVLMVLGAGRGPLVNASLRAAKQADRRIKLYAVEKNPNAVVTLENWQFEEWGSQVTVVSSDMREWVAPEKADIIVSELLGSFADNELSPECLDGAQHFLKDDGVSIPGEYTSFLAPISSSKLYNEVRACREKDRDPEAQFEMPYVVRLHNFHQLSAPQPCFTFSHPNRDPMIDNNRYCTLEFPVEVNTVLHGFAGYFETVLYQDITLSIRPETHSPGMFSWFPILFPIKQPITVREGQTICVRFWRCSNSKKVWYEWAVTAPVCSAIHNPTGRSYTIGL
Below, each entry is listed alongside its reported EC50.
property-name: EC50

INSERT INTO results (compound, observed_measurement) VALUES
  ('Cn1ncc2ccc(-c3ccnc(NCC(O)CN4CCc5ccccc5C4)c3)cc21 (stereo not given)', '101 to 1000 nM'),
  ('O=C(COc1cccc(NC2CCOCC2)c1)NCC(O)CN1CCc2ccccc2C1 (stereo not given)', '< 100 nM'),
  ('O=C(Cn1cnc2ccc(-c3cccc(OCC(O)CN4CCc5ccccc5C4)c3)cc21)N1CCCC1 (stereo not given)', '101 to 1000 nM'),
  ('O=C(COc1ccccc1-c1cc[nH]n1)NC[C@@H](O)CN1CCc2ccccc2C1', '< 100 nM'),
  ('O=C(COc1ccccc1)NCC(O)CN1CCc2ccccc2C1 (stereo not given)', '101 to 1000 nM');
